Experiment: in vitro
Settings: human, hela cells, % viability
So basically: is viability at 28.5 h, 10 µM under 90%? Then Yes. Not under? Then No.

Find out if reported viability at 28.5 h, 10 µM for CCN(C(=O)Cn1c(=O)cc(C)c2ccccc21)C1CCN(C)CC1 [CBK281871] is less than 90%
Yes

Find out if reported viability at 28.5 h, 10 µM for O=C(Cn1cccc(C(=O)NCc2ccccc2)c1=O)Nc1cc(F)ccc1N1CCCC1 [CBK286041] is less than 90%
No

Find out if reported viability at 28.5 h, 10 µM for Cc1cccc(C)c1OCC(=O)NC(C)C(=O)O (centres unmarked) [CBK287185] is less than 90%
Yes

Find out if reported viability at 28.5 h, 10 µM for Cc1nn(C)cc1CN(Cc1ccc(F)cc1)CC1CCCO1 (centres unmarked) [CBK282472] is less than 90%
No

Find out if reported viability at 28.5 h, 10 µM for O=C(O)c1cccc(C(=O)c2cccc(C(=O)O)c2)c1 [CBK263933] is less than 90%
No

Find out if reported viability at 28.5 h, 10 µM for Cc1c(C(=O)Nc2cccnc2)nnn1-c1cccc(C(F)(F)F)c1 [CBK107389] is less than 90%
No

Find out if reported viability at 28.5 h, 10 µM for O=C(c1ccco1)N1CCN(c2cc(-c3cccnc3)ncn2)CC1 [CBK037833] is less than 90%
No

Find out if reported viability at 28.5 h, 10 µM for NC(=O)CCCCn1c2c(c3cccc(C(=O)O)c31)CCCCC2 [CBK034088] is less than 90%
No

Find out if reported viability at 28.5 h, 10 µM for O=c1c2[nH]c3ccccc3c2ncn1Cc1ccccc1 [CBK287809] is less than 90%
No

Find out if reported viability at 28.5 h, 10 µM for CSc1ccc(-c2cnc3nc(N)ccc3c2)cc1 [CBK081169] is less than 90%
Yes

Find out if reported viability at 28.5 h, 10 µM for Nc1ccc2ccc(-c3ccncc3)nc2n1 [CBK067622] is less than 90%
Yes

Find out if reported viability at 28.5 h, 10 µM for COc1ccccc1-c1cc(N2CCN(CC(=O)N(C)c3ccccc3)CC2)ncn1 [CBK091136] is less than 90%
No

Find out if reported viability at 28.5 h, 10 µM for S=C1NC2c3ccccc3OC3(CCCCC23)N1 (centres unmarked) [CBK288506] is less than 90%
No

Find out if reported viability at 28.5 h, 10 µM for Cc1onc(-c2ccccc2)c1CNC(=O)c1cccc(C(F)(F)F)c1 [CBK144079] is less than 90%
No

Find out if reported viability at 28.5 h, 10 µM for Nc1cccc(Oc2ccc3c(c2)C(=O)N(CCC(=O)O)C3=O)c1 [CBK287186] is less than 90%
No

Find out if reported viability at 28.5 h, 10 µM for Cc1cc(NS(=O)(=O)c2cnn(-c3ccccc3)c2C)n(C)n1 [CBK067252] is less than 90%
No

Find out if reported viability at 28.5 h, 10 µM for COc1ccc(-c2cc(=O)oc3cc(OCC(=O)c4cc5ccccc5o4)ccc23)cc1 [CBK265634] is less than 90%
No

Find out if reported viability at 28.5 h, 10 µM for NC1=NC(=O)N([C@H]2C[C@@H](O)[C@@H](CO)O2)CN1 [CBK201248] is less than 90%
No

Find out if reported viability at 28.5 h, 10 µM for Nc1ccccc1CC(c1c[nH]c2ccccc12)c1c[nH]c2ccccc12 [CBK261780] is less than 90%
No

Find out if reported viability at 28.5 h, 10 µM for CC(=O)Nc1ccccc1NC(=O)COc1ccc(Br)cc1C [CBK265072] is less than 90%
No

Find out if reported viability at 28.5 h, 10 µM for CC(C)CCC(=O)Nc1ccc(N2CCN(C(=O)c3ccccc3C(F)(F)F)CC2)nn1 [CBK138629] is less than 90%
No

Find out if reported viability at 28.5 h, 10 µM for Cc1ccc(-c2nnc(C3CCCN(C(=O)C(C)C)C3)o2)s1 (centres unmarked) [CBK283058] is less than 90%
No

Find out if reported viability at 28.5 h, 10 µM for COc1ccccc1OCCOc1c(Cl)cc(/C=C2\SC(=S)NC2=O)cc1Cl [CBK264848] is less than 90%
No

Find out if reported viability at 28.5 h, 10 µM for C=CCSc1nc2sc3c(c2c(=O)[nH]1)CCCC3 [CBK287344] is less than 90%
No

Find out if reported viability at 28.5 h, 10 µM for Cn1cc(C(=O)Nc2cccc(S(=O)(=O)N3CCCCCC3)c2)cn1 [CBK305715] is less than 90%
Yes

Find out if reported viability at 28.5 h, 10 µM for CCc1cc(Br)ccc1S(=O)(=O)NC1CCOC1=O (centres unmarked) [CBK044385] is less than 90%
No

Find out if reported viability at 28.5 h, 10 µM for CC(C)(CO)Cn1c(=O)[nH]c2ncc(-c3ccco3)nc21 [CBK064721] is less than 90%
No

Find out if reported viability at 28.5 h, 10 µM for Cc1ccc2c(c1)OC1(CCN(C(=O)c3c(-c4ccccc4)nc4ccccn34)CC1)CC2=O [CBK167871] is less than 90%
No

Find out if reported viability at 28.5 h, 10 µM for Cc1ncncc1C(=O)N1CCc2sccc2C1c1ccccc1 (centres unmarked) [CBK281386] is less than 90%
No

Find out if reported viability at 28.5 h, 10 µM for C=CCn1c(Cc2csc(NC(=O)c3ccc([N+](=O)[O-])cc3)n2)n[nH]c1=S [CBK295290] is less than 90%
No

Find out if reported viability at 28.5 h, 10 µM for O=C1c2ccccc2C2(c3ccccc3)NCCN12 (centres unmarked) [CBK067098] is less than 90%
No
